target.system: Mannose-6-phosphate isomerase (Homo sapiens) (UniProt P34949)
Sequence (P34949 whole entry, looked up): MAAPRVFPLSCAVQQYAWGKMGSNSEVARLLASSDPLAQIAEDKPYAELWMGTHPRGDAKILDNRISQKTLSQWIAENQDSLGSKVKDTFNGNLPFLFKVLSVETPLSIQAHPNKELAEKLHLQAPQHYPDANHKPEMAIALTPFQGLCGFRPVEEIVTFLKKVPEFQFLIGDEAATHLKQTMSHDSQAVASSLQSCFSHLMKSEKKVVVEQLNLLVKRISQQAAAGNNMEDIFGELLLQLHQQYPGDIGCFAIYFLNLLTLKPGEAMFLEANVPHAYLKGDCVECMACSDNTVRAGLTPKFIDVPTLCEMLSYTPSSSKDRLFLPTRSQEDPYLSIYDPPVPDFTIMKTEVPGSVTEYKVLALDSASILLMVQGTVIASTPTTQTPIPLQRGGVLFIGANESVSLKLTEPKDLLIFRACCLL
assay.name: MPI inhibition at elevated mannose 6-phosphate – biochemical, fluorescence intensity, high mannose 6-phosphate, primary screen (AID 1220)
test.conditions: recombinant PMI enzyme, coupled fluorescence intensity; at 20 µM; active compounds read high
Hit rate of the full screen: of about 190,000 compounds, about 1,300 (0.68%) were called active. What follows is part of a selection rich in actives, with near analogues and random picks from the rest.
quantity.measured: inhibition (%)
Output spec: scalar in %, unitless text.

What inhibition value was documented for this compound, "Cc1ccc(N)c2c1OCCC2=O" ?
57.7

Record request: inhibition value, item "Cc1ccc2c(c1C)OC(=O)CC2(C)C"
-5.5

Value lookup for inhibition; key = COc1cc(C2CC(=O)NC3=C2C(=O)CC(C)(C)C3)ccc1O (configuration not stated)
4.3

I would be grateful if you could share the reported inhibition for "COc1ccc(N)c2c1C(=O)c1ccccc1C2=O" .
23.8

I am curious: what inhibition value has been reported for "Cc1ccc2cn[nH]c2c1[N+](=O)[O-]" ?
6.8

Which inhibition is reported for this compound? "Cc1ccc2cn[nH]c2c1N"
58.3

I am curious: what inhibition value has been reported for "COc1ccc(N)c2c1OCCC2=O" ?
59.8

----------
target.system: Mannose-6-phosphate isomerase (Homo sapiens) (UniProt P34949)
assay.name: MPI inhibition at elevated mannose 6-phosphate – biochemical, fluorescence intensity, high mannose 6-phosphate, primary screen (AID 1220)
test.conditions: recombinant PMI enzyme, coupled fluorescence intensity; at 20 µM; active compounds read high
The whole screen tested about 190,000 compounds, of which about 1,300 (0.68%) were called active. Only a selection was taken, and actives are over-represented in it overall.
Please note: criterion met applies when inhibition is 30% or greater, and criterion not met applies otherwise.

Please indicate if the recorded inhibition for "CNc1nc(-c2ccccc2)cc(C)c1S(C)(=O)=O" meets or exceeds 30%.
criterion met

Confirm if inhibition reported for the compound "Nn1c(SCC(=O)NCc2ccccc2)nncc1=O" is 30% or above.
criterion not met

Say whether "N#C/C(=C\c1ccc(N2CCOCC2)cc1)c1ccccc1" shows inhibition of 30% or more.
criterion not met

Check if inhibition >= 30% (inclusive). Item: "COc1cc(C)c(NC(=S)Nc2cccc(Cl)c2)cc1OC"
criterion not met

Hi team, for "CCN1CCN(c2cc(C)c3cc(NC(=S)N4CCN(c5ccccc5)CC4)ccc3n2)CC1" , is the recorded inhibition at or above 30%?
criterion not met

I'd appreciate it if you could say whether "Cn1c(/C(C#N)=C/c2cccc(O)c2)nc2ccccc21" has inhibition at least equal to 30%.
criterion not met

Is reported inhibition greater than or equal to 30% here: "Cc1cc(-c2ccccc2)nc(N(C)C)c1S(C)(=O)=O"
criterion not met

Exam item: decide whether the reported inhibition for N#CC(C#N)=C1C=C2C=C(N3CCCCC3)CCC2CC1 (stereo not given) is at least 30%.
criterion met

Would you say "CC(C)Cn1[nH]c2c3c(ccc2c1=O)C(=O)c1ccccc1C3=O" shows inhibition at minimum 30%?
criterion met

Quick check, inhibition >= 30%? CN1C(=S)SC(N(O)C(=O)Nc2cccc3ccccc23)C1(C)C (stereo not given)
criterion met

Please indicate if the recorded inhibition for Cc1cccc(N2CCN(C(=S)Nc3ccc4nc(N5CCN(C)CC5)cc(C)c4c3)CC2C)c1 (stereo not given) meets or exceeds 30%.
criterion not met

Check if inhibition >= 30% (inclusive). Item: "COc1ccc(NC(=S)Nc2ncccc2C)cc1OC"
criterion met

Does inhibition meet or surpass 30% for O=c1[nH]c2cc3c(cc2cc1CN(Cc1nnnn1CC1CCCO1)C1CCCCC1)OCO3 (stereo not given) ?
criterion not met

Please tell me: is the compound "COc1cc(N2CCCC2)c(OC)cc1C=O" at or over 30% in terms of inhibition?
criterion met

Check the entry "COc1cc(N2CCCC2)ccc1C=O" : does inhibition equal or exceed 30%?
criterion not met

State whether the measured inhibition reaches 30%, counting equality as reaching it, for CC(=O)N1N=C(c2cccc([N+](=O)[O-])c2)OC1c1cccc(Br)c1 (stereo not given)
criterion not met

Could you tell me if the measured inhibition of "CCNC(=S)Nc1ccc(Cl)c(C(F)(F)F)c1" reaches 30% or more?
criterion not met

Is inhibition at least 30%? Consider CC(=O)c1cccc(N(C(=O)CNC(=O)c2ccco2)C(C(=O)NCc2ccco2)c2ccccc2)c1 (stereo not given)
criterion not met

Does the compound "COc1cc(N2CCCC2)c(OC)cc1/C=C(/C#N)c1ccc(Br)cc1" have recorded inhibition that is 30% or more?
criterion not met

Textbook exercise: given the entry "O=C(NCc1cccs1)N[C@@H](Cc1ccccc1)C(=O)O" , state whether its inhibition is greater than or equal to 30%.
criterion not met

Item "O=C(O)c1cc(S(=O)(=O)N2CCOCC2)ccc1N1CCOCC1" with inhibition of 30% or above?
criterion not met

Confirm if inhibition reported for the compound "COc1ccc(NC(=S)Nc2ncccc2C)c(OC)c1" is 30% or above.
criterion not met

// inclusive: inhibition at least 30%? input: "CCOc1cc(/C=C2/C(=O)N(c3ccccc3)N=C2C)ccc1OC(=O)c1cccs1"
criterion not met

Item "CN(C)c1ccc(Cl)cc1N" with inhibition of 30% or above?
criterion met

Check this compound for inhibition at or above 30%: "C=CCc1c(OC)ccc2ccc(=O)oc12"
criterion not met

Would you say CN1CCN(C2=CC3=CC(=C(C#N)C#N)CCC3CC2)CC1 (stereo not given) shows inhibition at minimum 30%?
criterion met

Is inhibition at least 30%? Consider "CCOc1cc(/C=C2/C(=O)N(c3ccccc3)N=C2C)ccc1OC(=O)c1ccco1"
criterion met

Tell me whether inhibition is at least 30% here: "CCOc1cc(/C=C2\C(=O)N(c3ccc(C(N)=O)cc3)N=C2C)ccc1OC(=O)c1cccs1"
criterion met

Assess whether reported inhibition for "CCN(CC)C(=O)c1cn(CC)c(=O)c2cc(OC)c(OC)cc12" sits at 30% or higher.
criterion not met

Threshold query (inhibition >= 30%) on "COc1cc(NC(=S)Nc2ncccc2C)cc(OC)c1OC"
criterion met

Could you please find out whether "COc1ccc(C(=O)Nc2cccc(C(C)=O)c2)cc1OC" has inhibition that meets 30% or exceeds it?
criterion not met

Quick check, inhibition >= 30%? "Cc1ccc(Oc2ccc(Cl)cc2N)cc1"
criterion not met

Assess whether reported inhibition for "Cc1ccc(C)c(N2CCN(C(=S)Nc3ccc4nc(N5CCOCC5)cc(C)c4c3)CC2)c1" sits at 30% or higher.
criterion met

Quick check: does "Cc1cccc(N2CCN(C(=S)Nc3ccc4nc(N5CCN(C)CC5)cc(C)c4c3)CC2)c1C" have inhibition greater than or equal to 30%?
criterion not met

Could you please find out whether "COc1cc(/C=C(\C#N)c2nc3ccccc3n2C)cc(OC)c1O" has inhibition that meets 30% or exceeds it?
criterion met

Identify whether the reported inhibition of the following compound is 30% or greater: "FC(F)(F)c1cc(-c2cccs2)nc2nc(N3CCOCC3)sc12"
criterion not met

Check this compound for inhibition at or above 30%: "N#Cc1cc(Cl)c(N2CCOCC2)cc1C#N"
criterion not met

Can "O=C(NCCN1CCCCC1)c1cc(OCC(F)(F)F)ccc1OCC(F)(F)F" be said to have inhibition at or above 30%?
criterion not met

Tell me whether inhibition is at least 30% here: Cc1cccc(N2CCN(C(=S)Nc3ccc4nc(N5CCOCC5)cc(C)c4c3)CC2C)c1 (stereo not given)
criterion met

Reported inhibition at or above 30%? Cc1cccc(C(=O)NC(NCCc2ccccc2)C(Cl)(Cl)Cl)c1 (stereo not given)
criterion not met

Evaluate "CCn1cnc2cc(NCc3nc4ccccc4n3C)ccc21" : inhibition at minimum 30%?
criterion not met

Is inhibition for "Cc1cc(N2CCN(C)CC2)nc2ccc(NC(=S)N3CCN(c4ccc(Cl)cc4)CC3)cc12" at or above 30%?
criterion met

Dear colleague, could you confirm whether "Cc1ccc(C)c(-n2[nH]c3c4c(ccc3c2=O)C(=O)c2ccccc2C4=O)c1" has inhibition at or above 30%?
criterion met

----------
target.system: Mannose-6-phosphate isomerase (Homo sapiens) (UniProt P34949)
assay.name: MPI inhibition at elevated mannose 6-phosphate – biochemical, fluorescence intensity, high mannose 6-phosphate, primary screen (AID 1220)
test.conditions: recombinant PMI enzyme, coupled fluorescence intensity; at 20 µM
Out of some 190,000 compounds screened, about 1,300 (0.68%) were called active. Rule as the data show it: active = inhibition above about 50%; inactive = the rest. The sample as a whole holds a higher share of actives than the screen did.
Select the matching outcome among 1 (yes) (active), 0 (no) (inactive)

I'd appreciate the recorded outcome for "CCN=c1sc(C(=O)OC)cc(=O)n1CC" from this test.
0 (no)

Outcome? "CCCS(=O)(=O)C(=C(Nc1ccccc1)Nc1ccccc1)S(=O)(=O)CCC"
0 (no)

// param item: CCOC(=O)N/N=C1\CC(C)CC(C)(C)C1 (stereo unspecified) ; yields the recorded call
0 (no)

Call for entry "CCSc1nc(C(F)(F)F)cc(=O)n1-c1ccccc1" :
0 (no)

# outcome recorded in this test, key = CNc1nc2[nH]c(=O)c3c(c2s1)OC(N)=C(C#N)C3c1cccc(F)c1 (stereo unspecified)
1 (yes)

Answer briefly: the call reported for CNc1nc2[nH]c(=O)c3c(c2s1)OC(N)=C(C#N)C3c1ccccc1 (stereo unspecified) in this assay.
1 (yes)

Can you look up the reported call for "CCOC(=O)Cn1c(=O)oc2cc(S(=O)(=O)Nc3ccc(N(CC)CC)cc3C)ccc21" for me?
1 (yes)

Per the records of this test, what outcome belongs to O=C(Nc1nc(-c2ccc(Cl)cc2Cl)cs1)c1ccc(OCC2CCCO2)cc1 (stereo unspecified) ?
0 (no)

# outcome recorded in this test, key = Cc1cc(C)c2c3c(sc2n1)C(c1cccc(F)c1)C(C#N)=C(N)O3 (stereo unspecified)
0 (no)

Record request — test call for COc1ccc(OC)c(-c2csc(NC(=O)c3ccc(OCC4CCCO4)cc3)n2)c1 (stereo unspecified)
1 (yes)

Hey, what did the test say about "CN(C)C(=O)C1(c2ccccc2)CCN(S(=O)(=O)c2ccccc2)CC1" ?
0 (no)
